Provide the reported Geo Mean, all events of each item.
# target_of_assay: T1, human PD-L1 on hPD-L1/CHO-K1 overexpressing cells (human, UniProt Q9NZQ7 19-290)
# T1 construct: whole, on cells; also called human PD-L1-expressing cells
# test_method_notes: flow cytometry on hPD-L1/CHO-K1 cells (sheet label hPD-1/CHO-K1)
I only need the number, thanks.

Param item = ME4.A12 anti-PD-L1 antibody (IgG form) (antibody, V domains shown) VH: QVQLVESGAEVKKPGSSVKVSCKASGGTFNNYAVSWVRQAPGQGLEWMGRIIPILGIANYAQTFQGRVTITADKSTTTAYMELSSLRSEDTAVYYCARSHWGYAHGAFDIWGQGTMVTVSS VL: QFVLTQPPSVSGAPGQRVTISCTGSSSNIGAGYDVHWYQQLPGTAPKVLIYGNSDRPSGVPDRFSGSKSGTSASLAITGLQGEDKATYYCQSYDSRLSGPVFGTGTKVTVLG ; retrieve measured Geo Mean, all events.
10.6

# get_value(readout='Geo Mean, all events', item= ME4.A11 anti-PD-L1 antibody (IgG form) (antibody, V domains shown) VH: QVQLVESGAEVKKPGSSVKVSCKASGGTFNNYAVSWVRQAPGQGLEWMGRIIPILGIANYAQTFQGRVTITADKSTTTAYMELSSLRSEDTAVYYCARSRGGYAHGAFDIWGQGTMVTVSS VL: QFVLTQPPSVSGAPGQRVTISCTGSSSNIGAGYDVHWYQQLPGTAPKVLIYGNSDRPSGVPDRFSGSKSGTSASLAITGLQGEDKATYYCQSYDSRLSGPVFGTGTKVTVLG )
12.1

Which Geo Mean, all events is listed for ME4.B10 anti-PD-L1 antibody (IgG form) (antibody, V domains shown) VH: QVQLVESGAEVKKPGSSVKVSCKASGGTFNNYAVSWVRQAPGQGLEWMGRIIPILGIANYAQTFQGRVTITADKSTTTAYMELSSLRSEDTAVYYCARSARGYAHGAFDIWGQGTMVTVSS VL: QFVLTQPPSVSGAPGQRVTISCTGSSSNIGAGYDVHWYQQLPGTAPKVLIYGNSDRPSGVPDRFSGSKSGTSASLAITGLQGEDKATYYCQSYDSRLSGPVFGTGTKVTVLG ?
11.5
